Test: Pharmacokinetics after oral capsules (sCT plus Dmt-DALDA with citric acid and lauroyl carnitine), non-enteric coated or enteric coated, in fasted beagle dogs (plasma; ELISA for sCT, HPLC-MS for Dmt-DALDA)
Type: in vivo
Settings: beagle, dog, plasma, oral, Enteric Capsule, Dog 3
Protocol: A second series of tests was carried out, as noted above, using beagle dogs. […] The plasma samples were subsequently analyzed for sCT by a direct ELISA, and for Dmt-DALDA by HPLC-mass spectrometry performed as set forth in Wan, H. and Desiderio, D., Quantitation of [DMT^1] […]
value kind: Tmax (h)
Answers are plain numbers, in h.

So for Cc1cc(O)cc(C)c1C[C@H](N)C(=O)N[C@H](CCCNC(=N)N)C(=O)N[C@@H](Cc1ccccc1)C(=O)N[C@@H](CCCCN)C(N)=O , the logged Tmax turned out to be 2.25

* * *

Assay: Pharmacokinetics after oral capsules (sCT plus Dmt-DALDA with citric acid and lauroyl carnitine), non-enteric coated or enteric coated, in fasted beagle dogs (plasma; ELISA for sCT, HPLC-MS for Dmt-DALDA)
Type: in vivo
Conditions: beagle, dog, plasma, oral, Non-Enteric Capsule, Dog 1; normalized to a 1 mg dose
value kind: Cmax (ng/mL)
Numbers only, in ng/mL.

So for Cc1cc(O)cc(C)c1C[C@H](N)C(=O)N[C@H](CCCNC(=N)N)C(=O)N[C@@H](Cc1ccccc1)C(=O)N[C@@H](CCCCN)C(N)=O [Dmt-DALDA] , the logged Cmax turned out to be 5.1

* * *

Test: Pharmacokinetics after duodenal injection of unformulated or formulated Dmt-DALDA in anesthetized rats (plasma, HPLC-UV)
Type: in vivo
Details: rat, in vivo, 1.12 mg, Unformulated, Red rat
value kind: Cmax (ng/mL)
Answers are plain numbers, in ng/mL.

So for Cc1cc(O)cc(C)c1C[C@H](N)C(=O)N[C@H](CCCNC(=N)N)C(=O)N[C@@H](Cc1ccccc1)C(=O)N[C@@H](CCCCN)C(N)=O [unformulated] , the logged Cmax turned out to be 1540

* * *

Assay: Pharmacokinetics after duodenal injection of unformulated or formulated Dmt-DALDA in anesthetized rats (plasma, HPLC-UV)
Format: in vivo
Settings: rat, in vivo, 1.12 mg, Unformulated, Red rat; trapezoidal rule
value kind: AUC (ng·h/mL)
One number for each entry, in ng·h/mL.

So for Cc1cc(O)cc(C)c1C[C@H](N)C(=O)N[C@H](CCCNC(=N)N)C(=O)N[C@@H](Cc1ccccc1)C(=O)N[C@@H](CCCCN)C(N)=O , the logged AUC turned out to be 192

* * *

Assay: Pharmacokinetics after oral capsules (sCT plus Dmt-DALDA with citric acid and lauroyl carnitine), non-enteric coated or enteric coated, in fasted beagle dogs (plasma; ELISA for sCT, HPLC-MS for Dmt-DALDA)
Assay type: in vivo
Conditions: beagle, dog, plasma, oral, Enteric Capsule, Dog 3; normalized to a 1 mg dose
value kind: Cmax (ng/mL)
Numbers only, in ng/mL.

So for Cc1cc(O)cc(C)c1C[C@H](N)C(=O)N[C@H](CCCNC(=N)N)C(=O)N[C@@H](Cc1ccccc1)C(=O)N[C@@H](CCCCN)C(N)=O , the logged Cmax turned out to be 21.5

* * *

Test: Pharmacokinetics after oral capsules (sCT plus Dmt-DALDA with citric acid and lauroyl carnitine), non-enteric coated or enteric coated, in fasted beagle dogs (plasma; ELISA for sCT, HPLC-MS for Dmt-DALDA)
Type: in vivo
Details: beagle, dog, plasma, oral, Enteric Capsule, Dog 1; normalized to a 1 mg dose
Experimental: A second series of tests was carried out, as noted above, using beagle dogs. […] The plasma samples were subsequently analyzed for sCT by a direct ELISA, and for Dmt-DALDA by HPLC-mass spectrometry performed as set forth in Wan, H. and Desiderio, D., Quantitation of [DMT^1] […]
value kind: Cmax (ng/mL)
Numbers only, in ng/mL.

So for Cc1cc(O)cc(C)c1C[C@H](N)C(=O)N[C@H](CCCNC(=N)N)C(=O)N[C@@H](Cc1ccccc1)C(=O)N[C@@H](CCCCN)C(N)=O , the logged Cmax turned out to be 29.4
